- Test system: Plasmodium falciparum
- method description: Antiplasmodial activity against chloroquine-resistant Plasmodium falciparum W2
- Type: functional, organism-based
The entries below are paired with their reported IC50.

>>> result_value("COc1cc(NC(C)CCCN2C(=O)[C@H](CC(C)C)NC23CCCCCC3)c2ncccc2c1 (stereo partly specified)")
"2.63 µM"

Q: # input compound: COc1cc(NC(C)CCCN2C(=O)[C@H](C(C)C)NC23CCCCC3)c2ncccc2c1 (stereo partly specified) ; wanted: its IC50
Result: > 50 µM

Q: Consider the compound shown here: COc1cc(NC(C)CCCN2C(=O)[C@H](Cc3ccccc3)NC23CCCC3)c2ncccc2c1 (stereo partly specified) What is its recorded IC50?
Result: > 50 µM

Q: Fill in the blank: the reported IC50 of COc1cc(NC(C)CCCN2C(=O)[C@H](C)NC2(C)C)c2ncccc2c1 (stereo partly specified) is ____.
Result: > 50 µM

Q: Entry COc1cc(NC(C)CCCN2C(=O)[C@H](C(C)C)NC23CCCCCC3)c2ncccc2c1 (stereo partly specified) has what IC50?
Result: 8.89 µM

Q: Look at this compound and give its reported IC50. COc1cc(NC(C)CCCN2C(=O)[C@H](Cc3ccccc3)NC2(C)C)c2ncccc2c1 (stereo partly specified)
Result: > 50 µM
